test system: STK33; settings: concentration: 1 μM, replicates: in singlicate; n = 1
measurement.type: %Inh (%)
Give bare numbers, in %.

Take a look at these entries with their results.
C[C@@H]1CCN(C(=O)CO)C[C@@H]1N(C)c1ncnc2[nH]ccc12 ... 2
Cl.O=S(=O)(c1cccc(F)c1)c1ccc(Nc2ncnc3cc(Br)sc23)cc1Cl ... 0

Your task in this section: give %Inh for each listed record.
1. FC(F)(F)c1ccc(-c2nn3ncccc3c2-c2ccnc(Nc3cccc(C(F)(F)F)c3)n2)cc1
2. Cl.Cn1ccc(-c2cccc(Nc3ccnc4cc(-c5nccs5)ccc34)c2)n1
3. CS(=O)(=O)CCNCc1nc(-c2ccc3ncnc(Nc4ccc(OCc5cccc(F)c5)c(Cl)c4)c3c2)cs1.Cl
4. CCc1nc(-c2cccc(N(C)S(=O)(=O)c3ccccc3)c2)c(-c2ccnc(Nc3ccc(N4CCN(C(C)=O)CC4)nc3)n2)s1
5. COc1ccc(-c2oc3ncnc(N)c3c2-c2ccc(OC)cc2)cc1
6. Fc1ccc(Nc2nccc(-c3c(-c4ccc(Cl)cc4)nn4ncccc34)n2)cc1F

-- reply
5
0
0
0
0
1

====

test system: STK16; conditions: concentration: 1 μM, replicates: in singlicate; n = 1
measurement.type: %Inh (%)
Give bare numbers, in %.

Cc1ccc(NC(=O)c2cccc(C#N)c2)cc1-c1ccc(C(=O)Nc2ccncc2)cc1 [GSK1398463] ... 0
COc1ccc(Nc2nccc(N3CCC(NC(=O)c4cccc(NC(C)=O)c4)C3)n2)cc1 (stereo not drawn) [GSK1379732] ... 11
CC(C)(C)OC(=O)NC1CCCN(c2cc(-c3ccc4c(N)n[nH]c4c3)nc(N)n2)C1 (stereo not drawn) [GSK2286096] ... 19
COC(=O)c1cccc(NC(=O)NCCNc2ccnc(Nc3ccc(F)cc3)n2)c1 [GSK1379883] ... 5
CCC(CC)(CC)n1cnc2c(N)ncnc21 [SKF-97620] ... 2

Batch request: %Inh for each of the following compounds.
1. Nc1nc(-c2ccc3c(N)n[nH]c3c2)cc(N2CCC[C@@H](C(=O)Nc3ccccc3)C2)n1.O=C(O)C(F)(F)F.O=C(O)C(F)(F)F [GSK2288359]
2. Cl.Cl.c1ccc(-c2cc3ccncc3cc2OC2CCNCC2)cc1 [GSK1122999]
3. N#Cc1ccc(Oc2ccc(Nc3ncnc4cc[nH]c34)cc2Cl)cc1
4. O=C(c1ccc(-c2cc(-c3c[nH]nc3-c3ccccn3)ccn2)cc1)N1CCCC1 [GW792479]
5. Clc1cccc(-c2nc(Nc3ccncc3)c3ccccc3n2)c1 [GW873004]
6. CS(=O)(=O)CCNCc1ccc(-c2ccc3ncnc(Nc4ccc(OCc5ccccc5)c(Cl)c4)c3c2)o1.Cl [GW574783]
7. Nc1n[nH]c2nnc(-c3ccccc3)cc12 [SB-517389]

-- reply
18
0
36
16
0
0
0

Report %Inh for every entry below.
1. Nc1nc(-c2cccnc2)c(-c2ccnc3ccccc23)s1 [GW684083]
2. Cl.c1ccc(Cn2ccc3cc(Nc4ncnc5ccccc45)ccc32)cc1 [GW275568]

-- reply
[17, 19]

====

These compounds were tested on KIT; pKd is the recorded read-out.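 Further: kd values determined as follow-up on hits from a single-replicate KINOMEscan panel screen.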
Numbers only, as −log10 of the molar value.

Study these solved cases before continuing.
O=C(Nc1ccccc1)Nc1ccc(Oc2ccc3nccn3n2)cc1 ... 7.00
Cn1cc(-c2ccc3c(c2)CCN3C(=O)Cc2cccc(C(F)(F)F)c2)c2c(N)ncnc21 ... 5.28

Let's switch to this compound now.
-- ask Which pKd value is on record for Cn1ccc2ncnc(Oc3ccc(NC(=O)Nc4cccnc4)c(Cl)c3)c21 ?
-- reply 7.33

====

Provide the reported %Inh of each item.
test system: FAK; construct: gene PTK2; settings: concentration: 1 μM, replicates: in singlicate; n = 1
One number for each entry, in %.

Hi team, please reply with %Inh for each item in this list.
1. O=C(Nc1n[nH]c2nc(-c3ccco3)c(Br)cc12)c1ccc(CN2CCCC2)cc1.O=C(O)[C@H](O)[C@@H](O)C(=O)O [SB-742352]
2. CS(=O)(=O)CCNCc1ccc(-c2ccc3ncnc(Nc4ccc(OCc5ccccc5)c(Cl)c4)c3c2)o1.Cl [GW574783]
3. Cl.Cl.c1ccc(-c2cc3ccncc3cc2OC2CCNCC2)cc1 [GSK1122999]
4. Clc1cccc(-c2nc(Nc3ccncc3)c3ccccc3n2)c1 [GW873004]

-- reply
[0, 11, 0, 11]

====

tested on: ICK; details: concentration: 1 μM, replicates: in singlicate; n = 1
measurement.type: %Inh (%)
Give bare numbers, in %.

COc1ccc(Nc2nccc(N3CCC(NC(=O)Nc4ccc5c(c4)OCO5)C3)n2)cc1 (stereo not shown) [GSK1379745] ... 0
Clc1cc(Nc2ncnc3cc[nH]c23)ccc1OCc1ccccn1 ... 18
COc1ccc(NC(=O)c2ccc(-c3cc(-c4nnc(C)o4)ccc3C)cc2)cc1 [GW595885] ... 4

Consider the additional compound presented here.
-- ask Using the record for FC(F)(F)c1cc(Nc2nccc(-c3c(-c4ccc(Cl)cc4)nn4ncccc34)n2)ccc1Cl [GW829351] , report its %Inh.
-- reply 0

====

For each record, write down the corresponding %Inh.
system: EPHA3; settings: concentration: 1 μM, replicates: in singlicate; n = 1

Each compound below has a recorded value; state its %Inh.
1. C[C@H]1CC[C@@H](C(=O)Nc2ccccc2)CN1c1cc(-c2ccc3c(N)n[nH]c3c2)nc(N)n1 [GSK2283293]
2. CCCc1ccc(S(=O)(=O)NC2CCN(c3ccnc(Nc4ccc(OC)cc4)n3)C2)cc1 (stereo not shown) [GSK1379737]
3. Nc1nc(-c2ccccn2)c(-c2ccnc3ccccc23)s1 [GW548057]
4. Cl.c1ccc(Cn2ncc3cc(Nc4ncnc5ccccc45)ccc32)cc1 [GW273749]
5. COc1ccc(Nc2nccc(N3CCC(NC(=O)Nc4ccc5c(c4)OCO5)C3)n2)cc1 (stereo not shown) [GSK1379745]

-- reply
["0%", "0%", "15%", "0%", "0%"]

Dear reader, for each entry below, please note its %Inh.
1. NC(=O)c1sc(-n2cnc3ccccc32)cc1OCc1ccccc1F [GSK1024306]
2. CC(C)(C)c1ccc(-n2cnc3c(N)ncnc32)cc1 [SKF-97263]

-- reply
5%
0%

====

tested on: CSNK1G3; conditions: concentration: 1 μM, replicates: in singlicate; n = 1
measurement.type: %Inh (%)
One number for each entry, in %.

// worked examples, %Inh included
Cc1ccc(C)c(NC(=O)NCCNc2ccnc(Nc3ccc(F)cc3)n2)c1 ... 24
Cc1cccc(-c2nc(Nc3ccc4[nH]nnc4c3)c3ccccc3n2)n1 ... 0
CCc1nc(-c2cccc(C)c2)c(-c2ccnc(NC(=O)c3ccccc3)c2)s1 ... 0
c1ccc(-c2ccc3c(-c4ccnc(Nc5ccc6c(c5)OCCO6)n4)cnn3n2)cc1 ... 27

List %Inh for every entry below, keeping the order given.
1. FC(F)(F)c1ccc(-c2nn3ncccc3c2-c2ccnc(Nc3cccc(C(F)(F)F)c3)n2)cc1
2. COc1cc2ncnc(Nc3ccc(OCc4ccccc4Br)c(Cl)c3)c2cc1OC.Cl
3. Nc1nc(-c2ccc3c(N)n[nH]c3c2)cc(N2CCCCC2)n1
4. Cl.Cl.c1ccc(-c2cc3ccncc3cc2OC2CCNCC2)cc1
5. CSc1nn2c(=O)cc(N3CCOCC3)nc2n1Cc1cccc(Cl)c1Cl
6. CS(=O)(=O)CCNCc1nc(-c2ccc3ncnc(Nc4ccc(OCc5cccc(F)c5)c(Cl)c4)c3c2)cs1.Cl
7. Cn1ccc2ncnc(Oc3ccc(NC(=O)Nc4cccnc4)c(Cl)c3)c21
8. Oc1ccc2ncnc(Nc3ccc(OCc4ccccc4)cc3)c2c1

-- reply
2
27
4
27
33
24
0
38

Answer for every listed entry: what is its %Inh? The entries follow.
1. Cc1cc(N2CCC(NS(=O)(=O)c3ccc(F)cc3)CC2)nc(Nc2cccc(C#N)c2)n1.O=C(O)C(F)(F)F
2. Cl.O=S(=O)(c1cccc(F)c1)c1ccc(Nc2ncnc3cc(Br)sc23)cc1Cl
3. Cl.Cn1ccc(-c2cccc(Nc3ccnc4cc(-c5nccs5)ccc34)c2)n1
4. Clc1ccc(-c2cc(-c3c[nH]nc3-c3ccccn3)ccn2)cc1

-- reply
1: 15; 2: 33; 3: 0; 4: 0

Could you report %Inh for every entry in the following list?
1. CCC(CC)(CC)n1cnc2c(N)ncnc21
2. Clc1cccc(-c2nc(Nc3ccncc3)c3ccccc3n2)c1

-- reply
1. 0
2. 18

====

system: DDR1; conditions: concentration: 1 μM, replicates: in singlicate; n = 1
measurement.type: %Inh (%)
Answers are plain numbers, in %.

Completed entries (count: 5):
O=c1cc(N2CCOCC2)nc2n(Cc3cccc(Cl)c3)ccn12 ... 21
CCc1nc(-c2cccc(N(C)S(=O)(=O)c3ccccc3)c2)c(-c2ccnc(Nc3ccc(N4CCN(C(C)=O)CC4)nc3)n2)s1 ... 44
Cl.c1ccc(Cn2ncc3cc(Nc4ncnc5ccccc45)ccc32)cc1 ... 3
CCC(CC)(CC)n1cnc2c(N)ncnc21 ... 0
Oc1ccc2ncnc(Nc3ccc(OCc4ccccc4)cc3)c2c1 ... 7

// for each compound below, give its %Inh
1. Fc1cccc(COc2ccc(Nc3ncnc4sc(-c5ccc[nH]5)cc34)cc2Cl)c1
2. Nc1nc(-c2ccc3c(N)n[nH]c3c2)cc(N2CCC[C@@H](C(=O)Nc3ccccc3)C2)n1.O=C(O)C(F)(F)F.O=C(O)C(F)(F)F
3. Cl.Cl.c1ccc(-c2cc3ccncc3cc2OC2CCNCC2)cc1
4. Clc1ccc(-c2cc(-c3c[nH]nc3-c3ccccn3)ccn2)cc1
5. CCc1nc(-c2cccc(C)c2)c(-c2ccnc(NC(=O)c3ccccc3)c2)s1
6. COc1cc2ncnc(Nc3ccc(OCc4ccccc4Br)c(Cl)c3)c2cc1OC.Cl
7. CCCc1ccc(S(=O)(=O)NC2CCN(c3ccnc(Nc4ccc(OC)cc4)n3)C2)cc1 (centres unmarked)

-- reply
1: 4; 2: 0; 3: 9; 4: 73; 5: 0; 6: 0; 7: 15

# batch: return %Inh for each of the 2 compounds below
1. Fc1ccc(Nc2nccc(-c3c(-c4ccc(Cl)cc4)nn4ncccc34)n2)cc1F
2. Cl.Fc1ccccc1COc1ccc(Nc2ncnc3ccc(-c4nnc(C(F)(F)F)o4)cc23)cc1Cl

-- reply
87
6
